The values you see were collected from a melting point compilation (Tetko et al.; mined from patent text by program, amines drawn as free bases though some values may be those of a salt).

experimentalEndpoint: melting point

Examples from the recorded data:
| molecule | experimentalEndpoint | reading |
| --- | --- | --- |
| CCOC1CC2(C)C(CCC3C4CC(O)C(Br)C4(C)CC(N(C)C)C32)CC1O (centres undefined) | melting point | 173 to 174 °C |
| CCCCc1nc(C(C)(C)O)c(C#N)n1C(c1ccccc1)(c1ccccc1)c1ccccc1 | melting point | 151 to 152 °C |
| COc1ccccc1CNc1ccc2cc(Nc3nnc(C4CC4)o3)ccc2n1 | melting point | 199 °C |
| O=C1C2CCCCC2C(=O)N1c1ccc(Br)cc1F (centres undefined) | melting point | 90 to 92 °C |
| CCOc1ccc(-c2ccc3c(c2)C=C(C(=O)O)CCO3)cc1 | melting point | 269 to 271 °C |

Report melting point for CCN1C(C(=O)Nc2cncc(Cl)n2)=C(O)c2ccccc2S1(=O)=O please. 233 to 235 °C

Moving on to the next molecule: CS(=O)c1ccccc1-c1nc2ncccc2o1 (centres undefined) 154 to 156 °C

Moving on to the next molecule: Cc1cccc(C)c1C(=Nc1ccc(F)cc1)NC(=NC1CCCCC1)N1CCCCC1C (centres undefined) 167 to 168 °C

Moving on to the next molecule: CC1Cc2cc(OCc3ccccc3)c(O)cc2C(=O)C1C (centres undefined) 90 to 93 °C
